Tested on: NCI-H522 lung
Assay: NCI tumour cell line growth inhibition, 48 h

compound	test system	TGI
N#Cc1c(-c2ccc(Cl)cc2)cc(-c2ccc(Nc3ccnc4cc(Cl)ccc34)cc2)nc1N	NCI-H522 lung	> 100 µM
O=C(/C=C/c1ccc(Cl)cc1)c1ccc(Cl)c(Cl)c1	NCI-H522 lung	42.9 µM
O=C(CC(=O)N1N=C(N2c3ccccc3Sc3ccccc32)CC1c1ccccc1)Nc1ccccc1Cl (stereo not given)	NCI-H522 lung	> 100 µM
Nc1ccc(Cc2ccc(N=Cc3ccc(OCc4cccc(COc5ccc(C=Nc6ccc(Cc7ccc(N)cc7)cc6)cc5)n4)cc3)cc2)cc1	NCI-H522 lung	> 100 µM
CC(C)NC(=O)OCc1c(COC(=O)NC(C)C)c(-c2ccc[n+](COC(=O)C(C)C)c2)n2c1CCC2	NCI-H522 lung	91.4 µM
CC(C)(C)OC(=O)NC(Cc1ccc(OCc2ccccc2)cn1)C(=O)N1CCCC1 (stereo not given)	NCI-H522 lung	> 100 µM
COc1ccc(C2C(C#N)=C(N)Oc3c2sc2c(F)cccc32)cc1 (stereo not given)	NCI-H522 lung	6.35 µM
O=C1NC(=NCc2ccccc2Br)S/C1=C\c1ccc2ncccc2c1	NCI-H522 lung	16.5 µM
NC(N)=N/N=C\c1ccc(C2CCNCC2)cc1	NCI-H522 lung	> 100 µM
CN=c1ss/c(=N\C(=S)N(C)C)n1-c1ccccc1	NCI-H522 lung	> 28.5 µM
COC(=O)C1(C(=O)OC)CC(=O)c2c(OC(=O)c3cccc(OC)c3C#N)ccc(OC(=O)c3cccc(OC)c3C#N)c2C1	NCI-H522 lung	> 100 µM
Brc1ccc(-c2[nH]c3ccccc3c2N=Nc2ccccc2)cc1	NCI-H522 lung	34.6 µM
N[C@H]1C[C@@H]1c1ccc(-c2cccc(O)c2)cc1	NCI-H522 lung	35.1 µM
O=C(NCCCN1CCC(N2CCCCC2)CC1)C1=Cc2cc(Br)ccc2OC1	NCI-H522 lung	6.12 µM
c1ccc(-c2[o+]c(-c3ccccc3)c(-c3ccccc3)c(-c3ccccc3)c2-c2ccccc2)cc1	NCI-H522 lung	> 100 µM
COC12OCCN(CCO)C1=CC(=O)C1(C)N=NC(C)C12 (stereo not given)	NCI-H522 lung	> 100 µM
CCNCC(O)COc1ccc2c(c1)[n+]([O-])nc(N)[n+]2[O-] (stereo not given)	NCI-H522 lung	43.6 µM
Cc1cc(C)c2c(c1)CC1(Cc3c(ccc(C)c3C)C1=O)C2=O (stereo not given)	NCI-H522 lung	> 100 µM
S=c1nc2sc3c(c2c(Nc2ccccc2)[nH]1)CCCC3	NCI-H522 lung	> 100 µM
CC(NC(=O)OC(C)(C)C)C(=O)NC(Cc1ccccc1)C(=O)NCC(=O)ON=C1CCCC1 (stereo not given)	NCI-H522 lung	> 100 µM

* * *

Tested on: SR leukemia
Test: NCI tumour cell line growth inhibition, 48 h
Reported TGI values for the following compounds.

compound	TGI
COc1cccc2c(=O)c3c(n(C)c12)OC(C(C)C)C3 (stereo unspecified)	> 100 µM
CCC(=O)c1c(C(F)(F)F)n([O-])c2cc(N3CCNCC3)c(F)cc2[n+]1=O	21.9 µM
CC(NC(=O)OC(C)(C)C)C(=O)NC(Cc1ccccc1)C(=O)NCC(=O)ON=C1CCCC1 (stereo unspecified)	> 100 µM
Cn1cc(-c2nonc2-c2cn(C)c3ccc(F)cc23)c2ccccc21	> 100 µM
COc1cccc(/C=C(\NC(C)=O)c2nc3ccc(Cl)cc3[nH]2)c1	> 100 µM
COc1ccc2c(c1)OCCCN(C)OC2c1ccccc1 (stereo unspecified)	> 100 µM
CC(C)(C)c1ccc(S(=O)(=O)N2C(c3cccc(C4CC[C@@H](C(=O)O)N4S(=O)(=O)c4ccc(C(C)(C)C)cc4)c3)CC[C@H]2C(=O)O)cc1 (stereo partly specified)	> 100 µM
COc1cc(/C=C2\C[C@H]3[C@@H]4CC=C5C[C@@H](OC(C)=O)CC[C@]5(C)[C@H]4CC[C@]3(C)\C2=N\O)cc(OC)c1OC	14.8 µM
CCOCc1cc(=O)c2cc3c(cc2o1)OC(C)(C)CC3	> 100 µM
COc1ccc(C(=O)NCCC2=CCCCC2)cc1	> 100 µM
CC(C)(C)C1=NC(=P(c2ccccc2)(c2ccccc2)c2ccccc2)C(=O)O1	> 100 µM
c1ccc(Cc2cc(-c3ccccc3)n[nH]2)cc1	32.3 µM
CSC(SC)=C(C#N)C(=O)Nc1ccc(C)cc1	> 100 µM
NCCNS(=O)(=O)c1ccc(N)cc1	> 100 µM
O=C(NC/C(Cl)=C/Cl)Nc1c2ccccc2nc2ccccc12	> 100 µM
COC(=O)Cc1c(C(=O)CC(C)(C)n2cnc(CCN3C(=O)CCC3=O)c2)[nH]c2ccccc12	> 100 µM
COc1ccc2c(c1)CCc1c(C(C)=O)c3ccccc3n1C2	> 100 µM
O=[N+]([O-])/C(C(Cl)=C(Cl)Cl)=C1\NCCS1	46.4 µM
COC(=O)C1(C(=O)OC)CC(=O)c2c(OC(=O)c3cccc(OC)c3C#N)ccc(OC(=O)c3cccc(OC)c3C#N)c2C1	> 100 µM
CNC(=O)Oc1ccc(C(=S)Nc2ccc(Br)cc2)cc1	46.1 µM
O=c1[nH]cnc2c1ccn2C1OC(CO)C(O)C1O (stereo unspecified)	49.3 µM
NC(Cc1ccc(O)c(O)c1)P(=O)(O)O (stereo unspecified)	> 100 µM
CC(c1ccccc1)N1O[C@]12CC[C@@]1(C)C(CCCC13OCCO3)C2 (stereo partly specified)	40.4 µM
CC(=O)OCC1OC(n2c3c(cc(C#N)c2=O)CCCCCC3)C(OC(C)=O)C(OC(C)=O)C1OC(C)=O (stereo unspecified)	> 100 µM
Clc1ccc(Nc2nnc(CNc3ccccc3)c3ccccc23)cc1	12.3 µM
CN=c1ss/c(=N\C(=S)N(C)C)n1-c1ccccc1	> 100 µM
C=CCNCCN1C(=O)c2ccc3c4c(ccc(c24)C1=O)C(=O)N(CCNCC=C)C3=O	2.92 µM
S=c1nc2sc3c(c2c(Nc2ccccc2)[nH]1)CCCC3	> 100 µM
O=[N+]([O-])c1ccccc1N=Nc1c(O)[nH]c2ccc(S(=O)(=O)O)cc12	> 100 µM
CCCCCCCCCC(CCCC(O)CC(=O)O)OC1OC(COC2OC(C)C(O)C(O)C2O)C(O)C(O)C1OC1OC(CO)C(O)C(O)C1OC1OC(C)C(OC(=O)CC(C)C)C(O)C1O (stereo unspecified)	> 60 µM
Cc1cc(C)nc(Sc2c([N+](=O)[O-])ncn2C)n1	> 100 µM

* * *

Tested on: SK-MEL-5 melanoma
Assay: NCI tumour cell line growth inhibition, 48 h

compound	GI50
CCN1C(C)(C)CC(Oc2ccc(C(=O)Nc3ccc(NC(=O)Nc4cc(C(C)(C)C)on4)cc3)nc2)CC1(C)C	1.68 µM
C[C@H]1CCC/C=C/[C@@H]2C[C@H](O)C[C@H]2[C@H](O)[C@@H](S(=O)C[C@@H](N)C(=O)O)CC(=O)O1 (stereo not given in full)	0.0209 µM
Clc1ccc(CNc2ccc3nc(CCC4CCCCC4)[nH]c3c2)cc1	1.69 µM
O=C1NC(=NCc2ccccc2Br)S/C1=C\c1ccc2ncccc2c1	10.4 µM
O=C1/C(=C\c2ccc(Cl)cc2)CCOc2c1ccc1ccccc21	20.6 µM
Cc1cc(Nc2nc(-c3ccc(F)cc3)nc3ccccc23)n[nH]1	7.4 µM
O=C1C=CC=C[C@@H]2C(C3OCCO3)CC[C@H]12.[C-]#[O+].[C-]#[O+].[C-]#[O+].[Fe] (stereo not given in full)	> 100 µM
C/C(=C1\SC(=NCc2cccs2)NC1=O)c1ccc2ncccc2c1	8.21 µM
CC(C)(O)/C=C/C(=O)[C@](C)(O)[C@H]1[C@H](O)C[C@@]2(C)[C@@H]3CC=C4[C@@H](C=C(O)C(=O)C4(C)C)[C@]3(C)C(=O)C[C@]12C	0.31 µM
CCCN1CCN(c2ccc3nc(-c4ccc5nc(-c6ccc(C(F)(F)F)cc6)[nH]c5c4)[nH]c3c2)CC1	1.77 µM

* * *

Test system: SK-MEL-2 melanoma
Assay: NCI tumour cell line growth inhibition, 48 h

compound	test system	TGI
S=c1nc2sc3c(c2c(Nc2ccccc2)[nH]1)CCCC3	SK-MEL-2 melanoma	> 100 µM
COc1cccc(/C=C(\NC(C)=O)c2nc3ccc(Cl)cc3[nH]2)c1	SK-MEL-2 melanoma	> 100 µM
Clc1nc(Cl)c2ncn(C/C=C\COc3cccc(OC/C=C\Cn4cnc5c(Cl)nc(Cl)nc54)c3)c2n1	SK-MEL-2 melanoma	> 100 µM
CCOCc1cc(=O)c2cc3c(cc2o1)OC(C)(C)CC3	SK-MEL-2 melanoma	> 100 µM
CCN(CC)c1ccc(/C=N/NC(=O)c2ccc(S(C)(=O)=O)cc2)c(O)c1	SK-MEL-2 melanoma	> 100 µM
CCOc1ccccc1N1C(=O)C(=O)C(c2nc3ccccc3s2)C(=O)C1=O	SK-MEL-2 melanoma	> 100 µM
Nc1cccc(CCN2CCN(CCCc3ccccc3)CC2)c1	SK-MEL-2 melanoma	> 100 µM
CN(C)c1nc(N)nc(CCl)n1	SK-MEL-2 melanoma	> 100 µM
CN1c2ccc(O)c(O)c2-c2cc(O)cc3c2C1CCC3 (configuration not stated)	SK-MEL-2 melanoma	58.6 µM
COc1ccc2c(C)cc(C)nc2n1	SK-MEL-2 melanoma	> 100 µM
Cc1cc(Nc2nc(-c3ccc(F)cc3)nc3ccccc23)n[nH]1	SK-MEL-2 melanoma	16 µM
CN(C)CCn1cnc2sc3ccccc3c21	SK-MEL-2 melanoma	> 100 µM
O=C1C=CC=C[C@@H]2C(C3OCCO3)CC[C@H]12.[C-]#[O+].[C-]#[O+].[C-]#[O+].[Fe] (some centres not stated)	SK-MEL-2 melanoma	> 100 µM
O=C1C(NCCF)=C(Cl)C(=O)c2ncccc21	SK-MEL-2 melanoma	0.794 µM
O=C(O)CCN1CCN(CCC(=O)O)CCN(CCC(=O)O)CC1	SK-MEL-2 melanoma	> 100 µM
COc1ccc2cc(C(=O)CCC(=O)O)ccc2c1	SK-MEL-2 melanoma	> 100 µM
CC(OC(C)(C)C)[C@H](NC(=O)OCc1ccccc1)C(=O)NC(OCc1ccccc1)[C@H]1COC(C)(C)O1 (some centres not stated)	SK-MEL-2 melanoma	> 10 µM
C=CCN1C(N)=C(C#N)C(C#N)(C#N)C1CCC (configuration not stated)	SK-MEL-2 melanoma	> 100 µM
CC(C)/C=N\N1C(N)=C(C#N)C(C#N)(C#N)C1C(C)C (configuration not stated)	SK-MEL-2 melanoma	> 100 µM
CC1=C(C(=O)CC(=O)C(=O)Nc2cccc(C)c2C)Sc2ccccc2N1	SK-MEL-2 melanoma	> 100 µM
O=C(O)COc1ccc(C(=O)/C(SS/C(C(=O)c2ccc(OCC(=O)O)c(Cl)c2Cl)=C2\C=C(c3ccc(F)cc3)SS2)=C2/C=C(c3ccc(F)cc3)SS2)c(Cl)c1Cl	SK-MEL-2 melanoma	34.7 µM
COc1cc(C2CC(c3cccc(Nc4ccnc5cc(Cl)ccc45)c3)=NN2C=O)cc(OC)c1OC (configuration not stated)	SK-MEL-2 melanoma	3.08 µM
